# target: Full-length human SMYD2 (residues 1-433), wild type (human, UniProt Q9NRG4 1-433)
# Sequence (Q9NRG4 whole entry, the tested form may be a part): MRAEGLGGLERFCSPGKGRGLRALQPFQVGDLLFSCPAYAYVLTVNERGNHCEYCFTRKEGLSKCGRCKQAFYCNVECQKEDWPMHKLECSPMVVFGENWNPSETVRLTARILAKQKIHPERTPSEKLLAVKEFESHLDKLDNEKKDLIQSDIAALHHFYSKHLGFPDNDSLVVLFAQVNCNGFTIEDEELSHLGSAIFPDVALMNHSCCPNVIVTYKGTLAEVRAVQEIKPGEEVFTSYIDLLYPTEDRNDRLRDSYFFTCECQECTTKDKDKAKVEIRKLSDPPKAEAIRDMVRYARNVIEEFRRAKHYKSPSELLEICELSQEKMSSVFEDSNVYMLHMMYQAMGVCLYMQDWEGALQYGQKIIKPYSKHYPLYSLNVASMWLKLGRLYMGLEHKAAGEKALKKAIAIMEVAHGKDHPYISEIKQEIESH
# assay-notes: ITC; two-site model, KD1
measure-name: Kd (µM)

# binder, measure-name, endpoint-result
rows = [
    ("RMKLTLKGGAAVD [PARP1 peptide (13-residue synthetic peptide, human PARP1 residues 522-534)]", "Kd", 17.8),
]
